- Target Under Test: GTPase HRas (Homo sapiens) (UniProt P01112)
- Method: blockade of GTP loading onto mutant Ras – biochemical, activated mutant, multiplex bead flow cytometry, dose response (AID 1341);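 further: GST-tagged constitutively activated Ras mutant immobilized on beads and multiplexed with other GTPases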
- Measurement Context: bead-based flow cytometry, Bodipy-FL-GTP binding; series mostly up to 100 µM
Entries with a potency or affinity are not part of this list. The source made the active and inactive calls.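 How the source made its calls: active means dose-response curve with midpoint inside the tested range, moderate steepness, significant amplitude and little compound fluorescence or bead-attachment interference; inactive means the rest.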
Value Kind: outcome

[
  {
    "Molecule": "CN1CCN(c2ccccc2NC(=O)c2ccc(-c3cccc([N+](=O)[O-])c3)o2)CC1",
    "outcome": "inactive"
  },
  {
    "Molecule": "O=C(O)c1cc(C(=O)O)cc(-c2ccc(/C=c3/sc4nc5ccccc5n4c3=O)o2)c1",
    "outcome": "inactive"
  },
  {
    "Molecule": "COc1cc(C)c2c(c1C=O)Oc1c(c(C)c(O)c3c1C(O)OC3=O)OC2=O (stereo not given)",
    "outcome": "inactive"
  },
  {
    "Molecule": "COc1ccc(C2CC(c3ccccc3)=NN2c2ccc(S(N)(=O)=O)cc2)cc1 (stereo not given)",
    "outcome": "inactive"
  }
]

[Q] Identify measured outcome obtained with GTPase HRas (Homo sapiens) (UniProt P01112) for O=C(CSc1ccccc1)Nc1ccc(C(=O)Nc2cccc(O)c2)cc1 .
[A] inactive
